- System: biotinyl-Leu-oxazolone
- assay.overview: self-aminoacylation, catalytic enhancement (BLO) (fold over background); higher = more active; k-Seq, kA / k0A0; sequences stand for … in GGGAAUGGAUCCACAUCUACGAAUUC…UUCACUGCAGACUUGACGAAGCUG
Variants at the floor of the assay were thinned out.
endpoint.name: self-aminoacylation
Field format: numeric only.

Value lookup for self-aminoacylation; key = CUACUUCUAACAGUCGGUCUG [Fam1A.1 aminoacylation ribozyme variant]
0.611

Value lookup for self-aminoacylation; key = CUACUUCAAAAAAUCGUUCUG [Fam1A.1 aminoacylation ribozyme variant]
0.57

Value lookup for self-aminoacylation; key = ACGUUUACUAAUAGUCGCAAG [Fam3.1 aminoacylation ribozyme variant]
1.8

Value lookup for self-aminoacylation; key = CCGCACUUCAAGCAAUCGGCC [Fam1B.1 aminoacylation ribozyme variant]
1.61

Value lookup for self-aminoacylation; key = AUUACCCUGGACAUCGUGUGA [Fam2.1 aminoacylation ribozyme variant]
2.45

Value lookup for self-aminoacylation; key = AUUCCCCUGGUCAUCGAGUGA [Fam2.1 aminoacylation ribozyme variant]
6.99

Value lookup for self-aminoacylation; key = AAGUUUGCUAAUAGUCUGAAG [Fam3.1 aminoacylation ribozyme variant]
0.996

Value lookup for self-aminoacylation; key = CUACUUCCACCAAUCGGUCUG [Fam1A.1 aminoacylation ribozyme variant]
0.793

Value lookup for self-aminoacylation; key = AUUACCCUGAUCAUCGGGUGA [Fam2.1 aminoacylation ribozyme variant]
9.62

Value lookup for self-aminoacylation; key = AAUACCCUGGUCAUCGGGUGA [Fam2.1 aminoacylation ribozyme variant]
11.8

Value lookup for self-aminoacylation; key = AAGUUUGCUAAUCGACGCAAG [Fam3.1 aminoacylation ribozyme variant]
0.477

Value lookup for self-aminoacylation; key = AUUAUCCUGGUCAGCGAGUGA [Fam2.1 aminoacylation ribozyme variant]
5.28

Value lookup for self-aminoacylation; key = AAGUUUGCUAGGAGUCGCAAG [Fam3.1 aminoacylation ribozyme variant]
0.459

Value lookup for self-aminoacylation; key = AUUCCCCUGGUCAUCGAGUAA [Fam2.1 aminoacylation ribozyme variant]
1.35

Value lookup for self-aminoacylation; key = CUACUUCCAACAAUCGGGCUG [Fam1A.1 aminoacylation ribozyme variant]
1.28

Value lookup for self-aminoacylation; key = AUUCACCUAUGUCAGCGGGUG [Fam2.2 aminoacylation ribozyme variant]
4.78

Value lookup for self-aminoacylation; key = CUUACCCGGGUCAUCGAGUGA [Fam2.1 aminoacylation ribozyme variant]
7.48

Value lookup for self-aminoacylation; key = CUACAACAAACAAUCGGUCUG [Fam1A.1 aminoacylation ribozyme variant]
0.743

Value lookup for self-aminoacylation; key = AUUACAUUGGUCAUCGAGUGA [Fam2.1 aminoacylation ribozyme variant]
5.8

Value lookup for self-aminoacylation; key = AAGUUUGUUAAUCGUCGCAAG [Fam3.1 aminoacylation ribozyme variant]
1.15

Value lookup for self-aminoacylation; key = AUUCUCCCAGGUCAUCGGGUG [Fam2.2 aminoacylation ribozyme variant]
12.8

Value lookup for self-aminoacylation; key = AUUCACCUAGGUCAACGGGUA [Fam2.2 aminoacylation ribozyme variant]
1.29

Value lookup for self-aminoacylation; key = AUUCACCCAGGUCUUCGGGUG [Fam2.2 aminoacylation ribozyme variant]
5.78

Value lookup for self-aminoacylation; key = AUUACCCUGGUCAUCCAUUGA [Fam2.1 aminoacylation ribozyme variant]
1.14

Value lookup for self-aminoacylation; key = AAGUUUGCUAAUAGUAGCUAG [Fam3.1 aminoacylation ribozyme variant]
0.639

Value lookup for self-aminoacylation; key = AUCACUCUGGUCAUCGAGUGA [Fam2.1 aminoacylation ribozyme variant]
3.85

Value lookup for self-aminoacylation; key = AUUACCCUAGACAUCGAGUGA [Fam2.1 aminoacylation ribozyme variant]
7.96

Value lookup for self-aminoacylation; key = CUACUUCAAACUAGCGGUCUG [Fam1A.1 aminoacylation ribozyme variant]
0.79

Value lookup for self-aminoacylation; key = AUUCACCUAGGUCAUCGCGUG [Fam2.2 aminoacylation ribozyme variant]
17.4

Value lookup for self-aminoacylation; key = AAGUUUGCUUAUAGUCGCAAU [Fam3.1 aminoacylation ribozyme variant]
1.27

Value lookup for self-aminoacylation; key = CCACUUCAGACAAUCGGUCUG [Fam1A.1 aminoacylation ribozyme variant]
1.33

Value lookup for self-aminoacylation; key = AUUGACCUAGGUCAUCGGGGG [Fam2.2 aminoacylation ribozyme variant]
4.57

Value lookup for self-aminoacylation; key = CUUCACCUAUGUCAUCGGGUG [Fam2.2 aminoacylation ribozyme variant]
4.68

Value lookup for self-aminoacylation; key = AAGUUUGCUAAUAGUCGCGAC [Fam3.1 aminoacylation ribozyme variant]
0.907

Value lookup for self-aminoacylation; key = CCACACUUCAAACAAUCCGUC [Fam1B.1 aminoacylation ribozyme variant]
0.682

Source of measurements: the supplement of paper PMC9233669
